# Test system: Hs-578T
# TEST_DETAILS: NCI tumour cell line growth inhibition, 48 h
The source made the active and inactive calls. No stated cut-off is given here; in the data, active = GI50 up to about 1.1 µM and inactive = higher.
Pick one and only one: 1.0 (active), 0.0 (inactive)

What outcome does the record of this test show for O=C1SC(SCc2ccccc2)=NC12CC2c1ccccc1 (stereo not given) ?
0.0

Per the records of this test, what outcome belongs to C[C@]12CCC(O)CC1=CC[C@@H]1[C@@H]2CC[C@]2(C)C(=O)[C@H](n3ccnc3)C[C@@H]12 (stereo not given in full) ?
0.0

Identify the outcome logged in this assay for the molecule shown: Clc1ccc2c(NC3CCC(N4CCCCC4)CC3)ccnc2c1 (stereo not given)
0.0

Others:
Tell me the assay call for CCOC(=O)NC(Nc1ccc(C(=O)OCC)cc1)(C(F)(F)F)C(F)(F)F please.
0.0

Tell me the recorded outcome of this test for Cc1oc(N)c(S(=O)(=O)c2ccc(Cl)cc2)c1C .
0.0

Which result was noted for this molecule in the test: O=C(O)Cc1ccc(Oc2nc3ccccc3nc2-c2cccs2)cc1
0.0

Each molecule tested received a call. Report the one for N=C(N)NS(=O)(=O)c1ccc(Nc2c3ccccc3nc3c(C(=O)NNCCO)cccc23)cc1 .
1.0

What outcome does the record of this test show for Cc1sc2nc(-c3ccc([N+](=O)[O-])cc3)c(/C=N/N=C(N)N)n2c1C ?
0.0

Could you check what this test reported for Nc1ccc(-c2nc3cc(F)ccc3s2)cc1Br ?
0.0

Write down the call the test reported for this molecule. Item: CCOC(=O)c1c(NS(=O)(=O)c2ccc(Br)cc2)sc2c1CCCC2
0.0

----------
# System: SK-MEL-28
# TEST_DETAILS: NCI tumour cell line growth inhibition, 48 h
Calls of active or inactive are those of the source. Rule as the data show it: active = GI50 up to about 1.1 µM and inactive = higher.
Classes to choose from: active, inactive

Below are worked cases with known answers.
I'd appreciate the recorded outcome for C[N+](C)(CCCCCC[N+](C)(C)CCCN1C(=O)c2cccc3cccc(c23)C1=O)CCCN1C(=O)c2cccc3cccc(c23)C1=O from this test.
inactive

Test call for this molecule, please: COC(=O)c1c/c(=N\NC(=O)CC(=O)Nc2ccccc2OC)c2ccccc2o1
inactive

Write down the call the test reported for this molecule. Item: CN(C)/C=N/c1nc2ncn(CCOC(=O)c3ccccc3)c2c(=O)[nH]1
inactive

What call does the record list for Cc1cccc(C)c1NC(=O)CCC(=O)NNc1nnc(C)n1N ?
inactive

Could you kindly confirm the outcome this assay logged for O=C(c1ccco1)N(Cc1cccnc1)C(=S)N(Cc1cccnc1)C(=O)c1ccco1 ?
inactive

Could you kindly confirm the outcome this assay logged for CC12CCC[C@@](C)(C(=O)OC3OC(CO)C(O)C(O)C3O)[C@H]1CCC13CC4CC(OC4(CO)[C@H]1O)[C@@H]23 (some centres undefined) ?
inactive

Others:
# lookup: test call for COc1ccc(/C=C2\CCS(=O)(=O)c3ccccc3C2=O)cc1
inactive

Can you look up the reported call for C[C@]12CCC(O)CC1=CC[C@@H]1[C@@H]2CC[C@]2(C)C(=O)[C@H](n3ccnc3)C[C@@H]12 (some centres undefined) for me?
inactive

What outcome does the record of this test show for O=C1c2ccccc2C(=O)c2[nH]c(Cc3ccccc3F)nc21 ?
inactive

Called result for COc1cc(C2c3cc4c(cc3[C@@H](NC3CCN(Cc5ccccc5)CC3)C3COC(=O)[C@H]23)OCO4)cc(OC)c1O (some centres undefined)
active

Called result for O=[N+]([O-])c1ccc(CSc2c3ccccc3nc3ccccc23)cc1
inactive

Just for reference, ChEMBL document CHEMBL1201862 is where these values come from.
